The following compounds are listed with their measured CC50 values.
experiment: in vitro; conditions: human, Exp 2 CC50 Hap1

# compound, value_relation_sign, CC50 (µM)
data = [
    ("Cc1ccc(CN(C(=O)c2ccco2)c2ccccc2)cc1 [Compound 19g]", ">", 100),
    ("COc1ccc(N(Cc2ccc(F)cc2)C(=O)c2ccccn2)cc1", ">", 100),
    ("O=C(c1ccc[nH]1)N(Cc1ccc(C(F)(F)F)cc1)c1ccccc1", ">", 100),
    ("O=C(c1ccco1)N(Cc1ccccc1)c1ccc(C(F)(F)F)cc1 [Compound 19i]", ">", 100),
    ("O=C(c1ccco1)N(Cc1ccc(S(F)(F)(F)(F)F)cc1)c1ccccc1 [Compound 19f]", "=", 64.1),
    ("CC(C)c1ccc(CN(C(=O)c2ccco2)c2ccccc2)cc1 [Compound 19h]", "=", 49.1),
    ("COc1ccc(N(Cc2ccc(C(F)(F)F)cc2)C(=O)c2ccco2)cc1 [Compound 19e]", "=", 54.5),
    ("O=C(c1ccco1)N(Cc1ccc(C(F)(F)F)cc1)c1ccccc1 [Compound 19d]", "=", 98.1),
    ("O=C(c1ccco1)N(Cc1ccc(F)cc1)c1ccccc1 [Compound 19b]", ">", 100),
]

----------
system: EV-A71; assay: microbe, parasite or virus in culture; assay type: cell-based, enterovirus A71; conditions: Enterovirus A, EVA71, HeLa R19, read-out: EC50 EV-A71 strain TW/70811/08
The following molecules are listed with their measured EC50 values.

# molecule, value_relation_sign, EC50 / µM
measured = [
    ("O=C(c1ccco1)N(Cc1ccc(F)cc1)c1ccccc1 [Compound 19b]", "=", 0.92),
    ("COc1ccc(N(Cc2ccc(F)cc2)C(=O)c2cc[nH]c2)cc1 [Compound 12a]", "=", 8.18),
    ("O=C(c1ccco1)N(Cc1ccc(C(F)(F)F)cc1)c1ccccc1 [Compound 19d]", "=", 0.754),
    ("COc1ccc(N(Cc2ccc(F)cc2)C(=O)c2ccco2)cc1 [Compound 1]", ">", 30),
]

----------
test system: PV-1; experiment: microbe, parasite or virus in culture; type: cell-based, poliovirus 1; conditions: Enterovirus C, HeLa R19, read-out: EC50 PV-1 Experiment 1
pEC50: −log10 of the molar value.
test_readout: pEC50

# smiles_input, value_reported
rows = [
    ("COc1ccc(N(Cc2ccc(F)cc2)C(=O)c2ccco2)cc1", "< 4.52"),
]

----------
assay: in vitro; settings: human, Exp 1 CC50
The following compounds are listed with their measured CC50 values.
test_readout: CC50

# smiles_input, test_readout, value_reported
rows = [
    ("COc1ccc(N(Cc2ccc(F)cc2)Cc2ccco2)cc1", "CC50", "> 30 µM"),
    ("COc1ccc(N(Cc2ccc(F)cc2)S(=O)(=O)c2ccco2)cc1", "CC50", "> 30 µM"),
    ("COc1ccc(N(Cc2ccc(F)cc2)C(C)=O)cc1", "CC50", "> 30 µM"),
]

----------
tested on: CV-A24; test: microbe, parasite or virus in culture; assay type: cell-based, coxsackievirus A24; conditions: Enterovirus C, CVA24, HeLa R19, read-out: EC50 Exp2
pEC50: −log10 of the molar value.
test_readout: pEC50

# compound, test_readout, value_reported
rows = [
    ("COc1ccc(N(Cc2ccc(F)cc2)C(=O)c2cc[nH]c2)cc1 [Compound 12a]", "pEC50", 5.43),
    ("O=C(c1ccco1)N(Cc1ccccc1)c1ccccc1 [Compound 19a, N-Benzyl-N-phenylfuran-2-carboxamide]", "pEC50", 4.67),
    ("Cc1ccc(CN(C(=O)c2ccco2)c2ccccc2)cc1 [Compound 19g]", "pEC50", 4.96),
    ("O=C(c1ccco1)N(Cc1ccc(F)cc1)c1ccccc1 [Compound 19b]", "pEC50", 5.15),
    ("O=C(c1ccco1)N(Cc1ccc(C(F)(F)F)cc1)c1ccccc1 [Compound 19d]", "pEC50", 4.70),
]

----------
test: in vitro; conditions: human, CC50 Experiment 1

# molecule, CC50
rows = [
    ("COc1ccc(N(Cc2ccc(F)cc2)C(=O)c2ccco2)cc1 [Compound 1]", "> 30 µM"),
]

----------
The following compounds are listed with their measured CC50 values.
experiment: in vitro; conditions: human, Exp2 CC50
test_readout: CC50

# compound, test_readout, value_reported
data = [
    ("COc1ccc(N(Cc2ccc(F)cc2)C(=O)c2ccccn2)cc1", "CC50", "> 30 µM"),
    ("COc1ccc(N(Cc2ccc(F)cc2)Cc2ccco2)cc1", "CC50", "> 30 µM"),
    ("O=C(c1ccc[nH]1)N(Cc1ccc(C(F)(F)F)cc1)c1ccccc1", "CC50", "> 30 µM"),
    ("COc1ccc(N(Cc2ccco2)C(=O)c2ccc(F)cc2)cc1", "CC50", "> 30 µM"),
    ("COc1ccc(N(Cc2ccc(F)cc2)S(=O)(=O)c2ccco2)cc1", "CC50", "> 30 µM"),
    ("O=C(c1ccco1)N(Cc1ccc(F)cc1)c1ccccc1 [Compound 19b]", "CC50", "> 30 µM"),
    ("CNCC(=O)N(Cc1ccc(F)cc1)c1ccc(OC)cc1", "CC50", "> 30 µM"),
    ("COc1ccc(N(Cc2ccc(F)cc2)C(=O)c2cc[nH]c2)cc1 [Compound 12a]", "CC50", "> 30 µM"),
    ("COc1ccc(N(Cc2ccc(F)cc2)C(=O)C2CCCO2)cc1 (stereo not drawn)", "CC50", "> 30 µM"),
    ("O=C(c1ccco1)N(Cc1ccc(C(F)(F)F)cc1)c1ccccc1 [Compound 19d]", "CC50", "> 30 µM"),
    ("COc1ccc(N(Cc2ccc(F)cc2)C(=O)c2cccs2)cc1", "CC50", "> 30 µM"),
    ("COc1ccc(N(Cc2ccc(F)cc2)C(=O)c2ccc[nH]2)cc1", "CC50", "> 30 µM"),
    ("CC(C)c1ccc(CN(C(=O)c2ccco2)c2ccccc2)cc1 [Compound 19h]", "CC50", "> 30 µM"),
    ("O=C(c1ccco1)N(Cc1ccc(S(F)(F)(F)(F)F)cc1)c1ccccc1 [Compound 19f]", "CC50", "> 30 µM"),
    ("O=C(c1ccco1)N(Cc1ccccc1)c1ccc(C(F)(F)F)cc1 [Compound 19i]", "CC50", "> 30 µM"),
    ("Cc1ccc(CN(C(=O)c2ccco2)c2ccccc2)cc1 [Compound 19g]", "CC50", "> 30 µM"),
    ("O=C(c1ccco1)N(Cc1ccccc1)c1ccccc1 [Compound 19a, N-Benzyl-N-phenylfuran-2-carboxamide]", "CC50", "> 30 µM"),
    ("COc1ccc(N(Cc2ccc(C(F)(F)F)cc2)C(=O)c2ccco2)cc1 [Compound 19e]", "CC50", "> 30 µM"),
    ("COc1ccc(N(Cc2ccc(F)cc2)C(C)=O)cc1", "CC50", "> 30 µM"),
    ("COc1ccc(N(Cc2ccccc2)C(=O)c2ccco2)cc1 [Compound 19c]", "CC50", "> 30 µM"),
    ("COc1ccc(N(Cc2ccc(F)cc2)C(=O)c2ccco2)cc1", "CC50", "> 30 µM"),
]

----------
tested on: EV-D68; experiment: microbe, parasite or virus in culture; assay type: cell-based, enterovirus D68; conditions: Enterovirus D, EVD68, HeLa R19, read-out: EC50 EV-D68 Experiment 2

# smiles_input, EC50 (nM)
rows = [
    ("COc1ccc(N(Cc2ccc(F)cc2)C(=O)c2ccco2)cc1", 390),
]

----------
The following molecules are listed with their measured EC50 values.
system: CV-B3; test: microbe, parasite or virus in culture; assay type: cell-based, coxsackievirus B3; conditions: Enterovirus B, CVB3, HeLa R19, read-out: EC50 HelaR19 Average

# molecule, system_under_test, result_unit, EC50
rows = [
    ("O=C(c1ccco1)N(Cc1ccccc1)c1ccc(C(F)(F)F)cc1 [Compound 19i]", "CV-B3", "nM", 2780),
    ("COc1ccc(N(Cc2ccccc2)C(=O)c2ccco2)cc1 [Compound 19c]", "CV-B3", "nM", 4410),
    ("CC(C)c1ccc(CN(C(=O)c2ccco2)c2ccccc2)cc1 [Compound 19h]", "CV-B3", "nM", 7650),
    ("O=C(c1ccc[nH]1)N(Cc1ccc(C(F)(F)F)cc1)c1ccccc1", "CV-B3", "nM", 2600),
    ("COc1ccc(N(Cc2ccc(C(F)(F)F)cc2)C(=O)c2ccco2)cc1 [Compound 19e]", "CV-B3", "nM", 930),
    ("COc1ccc(N(Cc2ccc(F)cc2)C(=O)c2cc[nH]c2)cc1 [Compound 12a]", "CV-B3", "nM", 11.2),
    ("COc1ccc(N(Cc2ccc(F)cc2)C(=O)c2ccco2)cc1", "CV-B3", "nM", 1760),
    ("O=C(c1ccco1)N(Cc1ccccc1)c1ccccc1 [Compound 19a, N-Benzyl-N-phenylfuran-2-carboxamide]", "CV-B3", "nM", 1620),
    ("O=C(c1ccco1)N(Cc1ccc(C(F)(F)F)cc1)c1ccccc1 [Compound 19d]", "CV-B3", "nM", 770),
]
